Test Protocol: DUSP6 inhibitors restoring Erk phosphorylation by chemical complementation, primary imaging in DUSP6-transfected HeLa (AID 609)
Test Context: HeLa MKP-3 transfected, phospho-Erk imaging KS statistic; measured here: cell density z-score; at 10 µM; cells stimulated with TPA for 15 min
Binary call on z-score: class 1 from 0.3 upward, class 0 beneath that.

# Compound, Assigned Label
records = [
    ("CN(Cc1c(O)ccc2c1oc(=O)c1ccccc12)C1CCCCC1", "class 1"),
    ("Cc1nccn1-c1cc(C(C)C)c(C#N)c2nc3ccccc3n12", "class 1"),
    ("CC[C@H](C)C(=O)O[C@H]1C[C@@H](C)C=C2C=C[C@H](C)[C@H](CC[C@@H]3C[C@@H](O)CC(=O)O3)[C@H]21", "class 0"),
    ("Cc1nn(C)cc1CNC(=O)c1ccc(Br)o1", "class 0"),
    ("CNc1oc(-c2ccc(Cl)cc2)nc1C#N", "class 0"),
    ("Cc1nc(Nc2ncc3c(n2)CCCC3=O)nc2ccccc12", "class 1"),
    ("N#CCCSCc1ccc(OCC(=O)O)cc1", "class 1"),
    ("COC(=O)CN(c1cc(OC)ccc1OC)S(=O)(=O)c1ccc(OC)c(OC)c1", "class 0"),
    ("CCCCOc1ccc(C(=O)OC2CC(C)N(C)CC2C)cc1 (stereo unspecified)", "class 0"),
    ("COc1cc(NC(=O)NC(C)(C(F)(F)F)C(F)(F)F)cc(OC)c1OC", "class 0"),
    ("CC(C)CC(=O)Nc1ccccc1N1CCCC1", "class 0"),
]
